Source of measurements: patent US20110136724A1

Hi there, I'd appreciate the recorded pKi for every entry that follows.
# ASSAYED_TARGET: T1, human recombinant GIP receptor (human, UniProt P48546 22-466)
# T1 construct: whole, on cells; Assayed as washed membranes of CHO-K1 cells expressing the receptor; also called hGIP receptor
# T1 sequence (looked up): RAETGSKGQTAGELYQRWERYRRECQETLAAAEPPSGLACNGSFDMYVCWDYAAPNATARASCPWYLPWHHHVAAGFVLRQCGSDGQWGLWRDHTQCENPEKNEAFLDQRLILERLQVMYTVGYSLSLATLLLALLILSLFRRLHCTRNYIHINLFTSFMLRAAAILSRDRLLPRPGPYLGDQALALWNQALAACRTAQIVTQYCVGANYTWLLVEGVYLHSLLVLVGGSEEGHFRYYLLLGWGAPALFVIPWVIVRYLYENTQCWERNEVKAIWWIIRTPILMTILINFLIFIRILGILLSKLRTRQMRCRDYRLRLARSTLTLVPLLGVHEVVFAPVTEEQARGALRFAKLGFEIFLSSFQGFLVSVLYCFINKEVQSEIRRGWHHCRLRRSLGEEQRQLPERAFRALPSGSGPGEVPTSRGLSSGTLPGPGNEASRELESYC
# TEST: radioligand competition, [125I]GIP on membranes of CHO-K1 cells expressing human GIP receptor
Primed or numbered codes have the meaning given here. Where no end group is shown, it is not given here. [ ]: non-standard residue; d: D form. The star is where a group is joined. Psu″ = N-propylsuccinimide on the Cys thiol (Cys(Psu)), CCCN1C(=O)CC(*)C1=O; Psu(3) = N-propylsuccinimide on Cys S, CCCN1C(=O)CC(*)C1=O; Psu = N-propylsuccinimide (on the Cys sulfur); 2Nal = N[C@@H](Cc1ccc2ccccc2c1)C(=O)O; Decanoyl = CCCCCCCCCC(=O)*; Ac6c = NC1(C(=O)O)CCCCC1; Orn = NCCC[C@H](N)C(=O)O
Expect pKi as a plain number equal to -log10 of the molar concentration.

In plain terms, Ac-[Ac6c]SDYSIAMDKIHQQDFVNWLLAQKGKKNC(Psu)WKHNITQ-OH (Synthetic analogue of human GIP) [[Ac-A6c^7, Cys(Psu)^35]hGIP(7-42)-OH] has a documented pKi of 6.31

In plain terms, Ac-[Ac6c]SDYSIAMDKIHQQDFVNWLLAQKGKKNDC(Psu)KHNITQ-OH (Synthetic analogue of human GIP) [[Ac-A6c^7, Cys(Psu)^36]hGIP(7-42)-OH] has a documented pKi of 6.35

In plain terms, F[Ac6c]SDYSIAMDKIHQQDFVNWLLAQKC(Psu(3))KKNDWKHNITQ-OH (Synthetic analogue of human GIP) [[A6c^7, Cys(Psu)^31]hGIP(6-42)-OH] has a documented pKi of 6.56

In plain terms, FXSDYSIAXDKIHQQDFVNWLLAQK (A6c at 7; Nle at 14; hGIP numbering; C-terminal amide, Synthetic analogue of human GIP) [(A6c^7, Nle^14)hGIP(6-30)-NH2] has a documented pKi of 6.67

In plain terms, Ac-[Ac6c]SDYSIAMDKIHQQDFVNWLLAQK[2Nal]KKNDWKHNITQ-OH (Synthetic analogue of human GIP) [(Ac-A6c^7, 2Nal^31)hGIP(7-42)-OH] has a documented pKi of 6.71

In plain terms, Ac-[Ac6c]SDYSIAMDKIHQQDFVNWLLAQKGKKNDWKC(Psu″)NITQ-OH (Synthetic analogue of human GIP) [[Ac-A6c^7, Cys(Psu)^38]hGIP(7-42)-OH] has a documented pKi of 6.48

In plain terms, Ac-[Ac6c]SDYSIAMDKIHQQDFVNWLLAQKGKKNDWKHNC(Psu″)TQ-OH (Synthetic analogue of human GIP) [[Ac-A6c^7, Cys(Psu)^40]hGIP(7-42)-OH] has a documented pKi of 6.27

In plain terms, FXSDYSIAMDKIHQQDFVNWLLAQK (N-terminal acetyl (Ac) on Phe 6; A6c at 7; hGIP numbering; C-terminal amide, Synthetic analogue of human GIP) [(Ac-Phe^6, A6c^7)hGIP(6-30)-NH2] has a documented pKi of 7.16

In plain terms, Ac-F[Ac6c]SDYSIAMDKIHQQDFVNWLLAQKC(Psu″)KKNDWKHNITQ-OH (Synthetic analogue of human GIP) [[Ac-Phe^6, A6c^7, Cys(Psu)^31]hGIP(6-42)-OH] has a documented pKi of 6.24

In plain terms, [Ac6c]SDYSIAMDKIHQQDFVNWLLAQKGKK[Orn](Decanoyl)DWKHNITQ-OH (Synthetic analogue of human GIP) [[A6c^7, Orn^34(N-C(O)-(CH2)8-CH3)]hGIP(7-42)-OH] has a documented pKi of 6.56
